Item-by-item account of self-splicing fitness (ln)
Assay: self-splicing fitness, log relative to wild type (ln ratio); higher = more splicing; Tetrahymena group I intron in knt gene, E. coli kanamycin selection, DiMSum; sequences stand for … in CUCUCU…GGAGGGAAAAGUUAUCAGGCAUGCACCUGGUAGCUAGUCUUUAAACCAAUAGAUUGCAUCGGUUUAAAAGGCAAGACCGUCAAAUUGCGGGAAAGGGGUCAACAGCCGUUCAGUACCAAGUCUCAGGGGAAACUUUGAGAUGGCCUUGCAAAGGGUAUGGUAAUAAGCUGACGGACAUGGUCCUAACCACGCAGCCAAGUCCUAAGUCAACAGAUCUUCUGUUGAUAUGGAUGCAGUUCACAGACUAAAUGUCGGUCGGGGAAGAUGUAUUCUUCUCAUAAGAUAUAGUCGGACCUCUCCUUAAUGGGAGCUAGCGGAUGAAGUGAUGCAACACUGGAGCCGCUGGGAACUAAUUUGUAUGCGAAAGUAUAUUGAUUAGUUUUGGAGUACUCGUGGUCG;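 also: selection with 25 µg/mL kanamycin versus none on LB agar overnight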
Details: 30 °C

Worked cases, self-splicing fitness (ln) given:
SEQUENCE_STRING: GAUCAGCAAUAUUACGGAGC
self-splicing fitness (ln): -1.86
//
SEQUENCE_STRING: GGGAAGCAAUAUUACGACCU
self-splicing fitness (ln): -2.31
//
SEQUENCE_STRING: UGGUAGCAAUAUUACGAGCA
self-splicing fitness (ln): -0.502
//
SEQUENCE_STRING: GUAAAGCAAUAUUACGACCC
self-splicing fitness (ln): -1.28
//
SEQUENCE_STRING: AAGAAGCAAUAUUACGUCGG
self-splicing fitness (ln): -0.907

Which measured self-splicing fitness (ln) value corresponds to CUUCAGCAAUAUUACGUAGG ?
-1.49

Which self-splicing fitness (ln) is reported for this sequence? UAAAAGCAAUAUUACGCUCG
-0.628

###

Measured self-splicing fitness (ln), listed per entry for reference.
Assay: self-splicing fitness, log relative to wild type (ln ratio); higher = more splicing; Tetrahymena group I intron in knt gene, E. coli kanamycin selection, DiMSum; sequences stand for … in CUCUCU…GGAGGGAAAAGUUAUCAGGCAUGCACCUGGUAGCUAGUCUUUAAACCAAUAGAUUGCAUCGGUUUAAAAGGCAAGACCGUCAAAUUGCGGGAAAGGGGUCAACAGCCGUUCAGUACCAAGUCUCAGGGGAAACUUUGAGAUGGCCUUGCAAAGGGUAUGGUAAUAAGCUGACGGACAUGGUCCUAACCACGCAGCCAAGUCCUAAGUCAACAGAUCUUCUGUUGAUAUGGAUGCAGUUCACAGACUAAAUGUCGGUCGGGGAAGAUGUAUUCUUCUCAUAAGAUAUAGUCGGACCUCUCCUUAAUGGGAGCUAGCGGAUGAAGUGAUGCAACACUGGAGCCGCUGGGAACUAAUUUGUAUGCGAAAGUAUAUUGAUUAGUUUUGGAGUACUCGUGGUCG
Settings: 30 °C
Would you mind answering with just the numeric figure?

SEQUENCE_STRING: UUGCAGCAAUAUUACGGGCG
TEST_VALUE: -0.91
--
SEQUENCE_STRING: AGUAAGCAAUAUUACGUGCC
TEST_VALUE: -0.0863
--
SEQUENCE_STRING: ACGCAGCAAUAUUACGCACC
TEST_VALUE: -0.334
--
SEQUENCE_STRING: CCGCAGCAAUAUUACGUAUU
TEST_VALUE: -3.84
--
SEQUENCE_STRING: GUAAAGCAAUAUUACGAGAU
TEST_VALUE: -2.12

Given UCGUAGCAAUAUUACGUUGU , state its recorded self-splicing fitness (ln).
-4.46

// query self-splicing fitness (ln) value for entry GCAGAGCAAUAUUACGUACC
-1.95

# lookup: self-splicing fitness (ln) of CCUCAGCAAUAUUACGAUGA
-2.63

For AGGUAGCAAUAUUACGCCUA , what is its reported self-splicing fitness (ln)?
-0.599

For the sequence shown here, CUCGAGCAAUAUUACGACAC , give the reported self-splicing fitness (ln).
-2.69

Which self-splicing fitness (ln) value belongs to UUAGAGCAAUAUUACGCUGU ?
-3.47
